system-under-test: HLA-A*02:01 (Homo sapiens, UniProt P04439, D140Y/D185E/D98H/E176V/E277Q/G131W/G231S/I119V/I121R/I166T/I218V/L300P/L318F/N151K/N90K/P208A/P217A/Q86G/Q94H/R138H/R169H/T345S)
assay-remarks: MHC binding assay: UV-ligand exchange with β2m ELISA
conditions: peptide exchange yield, binding to HLA-A*02:01
assay-endpoint: Peptide exchange

38 (RILDIDIPLSV; listed as Homo sapiens) [compound 38] = +++ (>50 = +++)
17 (KLWEESTAQV; listed as Homo sapiens) [compound 17] = +++ (>50 = +++)

* * *

system-under-test: HLA-A*02:01 (Homo sapiens, UniProt P04439, D140Y/D185E/D98H/E176V/E277Q/G131W/G231S/I119V/I121R/I166T/I218V/L300P/L318F/N151K/N90K/P208A/P217A/Q86G/Q94H/R138H/R169H/T345S)
assay-remarks: MHC binding assay: UV-ligand exchange with β2m ELISA
conditions: peptide exchange yield, binding to HLA-A*02:01
assay-endpoint: Peptide exchange

Please review the following examples before continuing.
45 (VLLHVSVLL; listed as Homo sapiens) [compound 45] = ++ (>20% = ++)
35 (TLLPTLYEI; listed as Homo sapiens) [compound 35] = +++ (>50 = +++)
8 (SVMELLQGV; listed as Homo sapiens) [compound 8] = ++++ (> 75% = ++++)
43 (VIANEIEKV; listed as Homo sapiens) [compound 43] = +++ (>50 = +++)
4 (RLDIQGTGQLL; listed as Homo sapiens) [compound 4] = +++ (>50 = +++)
6 (SLLSELVEA; listed as Homo sapiens) [compound 6] = ++++ (> 75% = ++++)
33 (SMTTNLDLKV; listed as Homo sapiens) [compound 33] = ++ (>20% = ++)
2 (VLLDIFTGV; listed as Homo sapiens) [compound 2] = ++++ (> 75% = ++++)

Fill in the blank: the reported Peptide exchange of 21 (VLGPEGQLV; listed as Homo sapiens) [compound 21] is ____.
+++ (>50 = +++)

Request the reported Peptide exchange associated with 39 (ALDGKIYEL; listed as Homo sapiens) [compound 39]
+++ (>50 = +++)

* * *

system-under-test: HLA-A*02:01 (Homo sapiens, UniProt P04439, D140Y/D185E/D98H/E176V/E277Q/G131W/G231S/I119V/I121R/I166T/I218V/L300P/L318F/N151K/N90K/P208A/P217A/Q86G/Q94H/R138H/R169H/T345S)
assay-remarks: MHC binding assay: UV-ligand exchange with β2m ELISA
conditions: peptide exchange yield, binding to HLA-A*02:01
assay-endpoint: Peptide exchange

Consider the reported Peptide exchange for these substances:
24 (ILDAQTAFV; listed as Homo sapiens) [compound 24] = +++ (>50 = +++)
34 (AIAGRLLGV; listed as Homo sapiens) [compound 34] = ++++ (> 75% = ++++)
28 (GLDEAIRKV; listed as Homo sapiens) [compound 28] = +++ (>50 = +++)
44 (FLNGLEILL; listed as Homo sapiens) [compound 44] = ++++ (> 75% = ++++)
54 (TLSDVVVGL; listed as Homo sapiens) [compound 54] = +++ (>50 = +++)

Next substance, please.
Can you look up the measured Peptide exchange of 1 (KLLDNLHDL; listed as Homo sapiens) [compound 1] for me?
++++ (> 75% = ++++)
